test: soluble fraction after stress (log2 fold change); higher = more stays soluble; pooled small domains, quantitative proteomics; conditions: stress: pH 4
measuredEndpoint: soluble fraction (log2)
Just the number, please, no unit after it.

For orientation, consider the following solved cases.
HMATKVSSGATVRDVADLLGLSSAELIKKLMMMGEMATLTQTLTDESIKSIADEYDRKIEIVSAAE	-1.22
HMSSGSLLTEREIEILAEMAKGLTNKAIGEKLFISVATVKTHILNIYRKLEVSSRVTAVNKAKQMRL	-0.11

Sample HMADEEEIMVPQVVGKTYDEAKSELENAGFKVEKNEKTSDKASGTVISQSINGGAKKGTSVTLTVSKGN — what was its soluble fraction (log2)?
0.132

Sample HMRRMTEEQSKLFQGLVSIVQTTLVADMEKGAVTPLLIAEKVDFVADNLYPGKDIDRKEAVAELIRRFSLW — what was its soluble fraction (log2)?
-0.875

Sample HMVAAITDLPVKSVNGRQMYYYVVRKGETVYSLTHTLGITHDRLVKANRSVEDGLRAGQILYFPVSEFG — what was its soluble fraction (log2)?
-0.00401

Sample HMALALDDLFDRYEQLQDQSLGDKTEEGQELRAMIRAYIEQEGLSVRVTRSTTNRELLELIEQEMEG — what was its soluble fraction (log2)?
-0.703

Sample HMVDPRWETPDENLAEQIKSVMPVMWVYDREAKSFVERPAIDFSFSIFERTTLYIYDKDGNEIGFAR — what was its soluble fraction (log2)?
0.0599

Sample HMTRAETPMAFIRAMVEAYTERGLDPNQALRKAQITPSQLKSTNARVTTLQMEWMSETAMREL — what was its soluble fraction (log2)?
-0.464

Sample HMELSAQEIGRRLRIARENADIRQDDAAQVIGMSRPTLVSIEKGVRRVRIQEIQMLARHYGVSVNALLR — what was its soluble fraction (log2)?
-0.2

###

assay: soluble fraction after stress (log2 fold change); higher = more stays soluble; pooled small domains, quantitative proteomics; conditions: stress: pH 4
measuredEndpoint: soluble fraction (log2)
Just the number, please, no unit after it.

For orientation, consider the following solved cases.
HMLINFPNKLKRLRLANNLTQQELANILETTKQAVSSYESGKSTPSLNSLIKLSEHFNISLDSLVFD	-0.446
HMVAADTVQVPDVTGKTVADAKQALISAGLQVGTVTAKDGKETANTILETSPAAGTSVDKGSKVNLVYSTG	-0.0646
HMDNEIMYPIQINGKVRAELFVSTERAMDKQYVLEQAKANEKIQGYLEGNRLVKEIFVPKRIVNLVIAP	0.184

Sample HMDIMLLLYKNIKKRRLEIGMSQEELAQKTGYTSRSSIAKIEKGEVDLQLSKIKLFANALRVSQSELMG — what was its soluble fraction (log2)?
-0.31

###

experiment: soluble fraction after stress (log2 fold change); higher = more stays soluble; pooled small domains, quantitative proteomics; conditions: stress: pH 4
measuredEndpoint: soluble fraction (log2)
Just the number, please, no unit after it.

For orientation, consider the following solved cases.
HMIDEKVQAADKSIEIGNLSPLKGLVTDDEMHELEKLFEKVMALKDFEVNDVGAGRKYIEAYVSFFKFAEG	-0.847
HMRPEARAASLSDEERKIFDYLAANGEKTIDNISVAVKMSAADILKNITLMSAKGLVYMPSAGRYGVKGN	0.0795

Switching to the query record.
Sample HMEIITIVSDINGKRIDAWLSEKLENYSRSFIQKLIQNENVKVNNNIVKANYKLKNGDAVAVSIPEPV — what was its soluble fraction (log2)?
-0.261

###

assay: soluble fraction after stress (log2 fold change); higher = more stays soluble; pooled small domains, quantitative proteomics; conditions: stress: pH 4
measuredEndpoint: soluble fraction (log2)
Just the number, please, no unit after it.

HMYTEIDDVKDLLSKIPSVNKLTTADRGMVQAARNAYDALDEDQKLYITIADVEKFNAAVEWMEEH	-0.523
HMAEKRTAIITTARADIRQKPEATAPLAFEAVKDVVLELTDKPADGWVRVKHRDGSTGYIRINQI	-0.132
HMDMAYEVVKAFHDLQDYKDVKGGKVYHHYDVGDTYPRQGLDPAPDETRIEELLSSGNAQGVPLIAEV	-0.219

Sample HMLADTNIHTIALKHRLANEVVEQVRPFLPETATIRAYDNMLILKSDRATLANVEQLIKKLDT — what was its soluble fraction (log2)?
0.228

###

assay: soluble fraction after stress (log2 fold change); higher = more stays soluble; pooled small domains, quantitative proteomics; conditions: stress: pH 4
Please enter y where soluble fraction (log2) is greater than or equal to -0.8, and n where it is lower.

Example entries begin here.
HMVSINETAFIQIKNSSATEIKEKITALKLDELKNVTITADIRTNKLIVVGPKATINKIQELVIELDTES	y
HMAPRASDALTERELDVLRVVADGASVAEAAEMLVVSRETVKKHLGNIYAKLGVHSKMQAVALLREEGV	n
HMPLDKDTTLDEIYRRFNMEHPADYKGHSLSMGDIVVFRQDGKQTAYYVDEGADYRQVPEFFVK	y

Given the entry HMDMNVQNYRGLSLDRAKKLISDLGLKYEVVGTGDSVVKQVPSSGSRMSKENGRIILYTENVEDA , answer whether its soluble fraction (log2) meets or surpasses -0.8.
y

Given the entry HMKLEEITIIVPSLRLDNFVSDLARTSRSKAVQIIDSERVFINGQNETKASKQVKLGDVITSA , answer whether its soluble fraction (log2) meets or surpasses -0.8.
y

Given the entry HMGSLVKLQSAAELHQAGRSAEAVPILLEVLATNPRLVDGWEILANALEKLGRLDEALAALKKTVALSPPG , answer whether its soluble fraction (log2) meets or surpasses -0.8.
n

Given the entry HMDGTAKVAHMLVNELETFNRLKKHEIAYMLHIQPETLSRILNKLTRNGTIEIEKNSVVILNIQELKEIY , answer whether its soluble fraction (log2) meets or surpasses -0.8.
y

###

soluble fraction (log2) values for the sequences below.
assay: soluble fraction after stress (log2 fold change); higher = more stays soluble; pooled small domains, quantitative proteomics; conditions: stress: pH 4
Just the number, please, no unit after it.

Sample HMNNIGSKIKSAKILNNLDDNQLSEITGIDKLQLRSIQDGQVNPTKMELEIISKALKLPTNYFTK — what was its soluble fraction (log2)?
0.154

Sample HMQINLKQSSDEELVKIITVQVHHYEPHTVKAAEAEIERRGIDKMRMAHLVKKVAQENTAVQEIQD — what was its soluble fraction (log2)?
0.134

Sample HMRGPPQVLVDVELEDGRVGQIGVRNGDDATELAETFVRAFRLEQSFVGRLANVIQGKIRELLHSQ — what was its soluble fraction (log2)?
-1.17

###

assay: soluble fraction after stress (log2 fold change); higher = more stays soluble; pooled small domains, quantitative proteomics; details: stress: pH 4
measuredEndpoint: soluble fraction (log2)
Just the number, please, no unit after it.

For orientation, consider the following solved cases.
HMGVRDIRIFERNNSFFVNAEIRGEAQLSVPITRTDYQLFKENKIDALSLVEKYYAEELNASNEMK	0.155
HMEMELNHVARRAGRLSGFLKGELRLSTGLMNRLKWSNAILVNGKPARTNAQVEPGDRITVILD	0.189
HMAASGTVNSGGDPLRVRADPNTSSQILTKLSDGTQVEVLEQAENGWYKIAHEGISGFVSGEYLVVH	-0.356
HMGSLPPPKDGTTIYVVKPGDSLWRISGKFFGNPLFWPRLWEINPNIDNPNKIYPGDVISLKP	0.219
HMTDVRFISIPIQKEHPWNRKLVSELNLPPGTLLVFLRRTGENIVPNGKTMIQEGDVLVLGASAYR	-1.04

Sample HMLENSLDHIEGIGPKTKDTLLTYFKSVSKIKSANPSILAELIGAAKTKILLAAFEKEKTTS — what was its soluble fraction (log2)?
0.17

Sample HMGVKIELNENEQAIFAAMQKQVEAVLPDLRAQFADMSNKAWDNSVKTLTKNNLLKVSKEAEILFIRL — what was its soluble fraction (log2)?
-1.09

Sample HMNVVDTGTDANYRVKISAVNLNMRLGPSTSYKSKGYITPGNYTIIKTSGDWGKVKETGYWVALKYTSKIN — what was its soluble fraction (log2)?
0.175

Sample HMYYNQGILKSGASVYGEPGITSSHRLEIPSGSFVDIVQEKDEWVYYEKNHVNHGWVLRENIYIPSL — what was its soluble fraction (log2)?
0.23

Sample HMDAKNNPQVMAQIRAILTAKGLSEDEVKTRLKTKNIDVDKMTDQEIIAQRPAIEAIINEMEQEKKQKMG — what was its soluble fraction (log2)?
0.142

###

soluble fraction (log2) values for the sequences below.
assay: soluble fraction after stress (log2 fold change); higher = more stays soluble; pooled small domains, quantitative proteomics; conditions: stress: pH 4
Just the number, please, no unit after it.

For orientation, consider the following solved cases.
HMQIVHKHLQLQPDQGALRAALYSHKAVVAEQVNEQGAINLEIKLAESDFLRLLKSSGLKLQDLVSLS	-1.16
HMLDIQKKGENIAYIEGAGDVIPESLKQIGYHVVTIAPKDINAETLSRFDAVVVGIRAYNTVEDL	-0.241
HMYEDIDSAYRILEINSTVSNQEIKNAYRRMAKKYHPDKVAHLGVEHQKGAEEKFKKVQEAYILIKKRRG	-0.146
HMGSSLLSPKEREVLQLLAGNLSNKQIALAMGVSDETIKWHLRNLFGKLNAGGRKHLIDRARMLGLLAAA	-0.153

Sample HMFAADIGVGIVDADSLRVRSEPSTGAPIVTSLLRGTQVTVQEKLDGWYRITYNDVSGFVSAEYLIFTADE — what was its soluble fraction (log2)?
-0.297

Sample HMSGFFVYPNPAKSNIIHFPNKKSFYIYDTSGRLLIEGKGKDFIDVSTLDRGVYLLKTFENDIVKIII — what was its soluble fraction (log2)?
-0.585

Sample HMLTAHEAILKELRKMLLTGVLSPGEAVRPEIIGESFGVSAVPVREALRILEGEGQVLNRPHKGYVVT — what was its soluble fraction (log2)?
-0.482

Sample HMSLSDDIAQTLRQLGFDRDVSETLANDVLPAMPTRQDVIDLLGTLGIEKHVAADFANFVVLN — what was its soluble fraction (log2)?
-1.08

Sample HMEFPYISGVDVGTISNKEFARFETTKASDIVIALDKSGIPFSARFGDSEIVLTYDGSYKEEVEEIIAKV — what was its soluble fraction (log2)?
-0.115

Sample HMDYNSYGLTERELELVDYVLKGYSRKEMAEASGLKVNTIGSYMKKIYRKLNIHNRTELKERFI — what was its soluble fraction (log2)?
-1.31
